Values compiled from patent US10017453B2.

Assay: Solubility screen of as-received 15-HETrE (aliquot addition method)
Assay type: physicochemical
Settings: organic solvent or mixture; DCM; estimated; read-out: Solubility Range
value-type: solubility

[
  {
    "compound": "CCCCCC(O)/C=C/C=C\\C/C=C\\CCCCCCC(=O)O (stereo not shown)",
    "result": "1170 to 3520 µg/mL"
  }
]

---

Assay: Solubility screen of as-received 15-HETrE (aliquot addition method)
Format: physicochemical
Details: organic solvent or mixture; Acetone; estimated; read-out: Solubility Range

[
  {
    "molecule": "CCCCCC(O)/C=C/C=C\\C/C=C\\CCCCCCC(=O)O (stereo not shown) [15-HETrE]",
    "solubility": "3120 to 9360 µg/mL"
  }
]

---

Assay: Solubility screen of as-received 15-HETrE (aliquot addition method)
Type: physicochemical
Conditions: organic solvent or mixture; Ethyl acetate (EtOAc); estimated; read-out: Solubility Range

[
  {
    "compound": "CCCCCC(O)/C=C/C=C\\C/C=C\\CCCCCCC(=O)O (stereo not shown) [15-HETrE]",
    "solubility": "1890 to 5660 µg/mL"
  }
]

---

Test: Solubility screen of as-received 15-HETrE (aliquot addition method)
Assay type: physicochemical
Conditions: organic solvent or mixture; THF; estimated; read-out: Solubility Range
value-type: solubility

[
  {
    "molecule": "CCCCCC(O)/C=C/C=C\\C/C=C\\CCCCCCC(=O)O (stereo not shown)",
    "value-type": "solubility",
    "result": "3320 to 9960 µg/mL"
  }
]

---

Test: Solubility screen of as-received 15-HETrE (aliquot addition method)
Format: physicochemical
Details: organic solvent or mixture; Ethanol (EtOH); estimated; read-out: Solubility Range
From the text: This is believed to be due to degradation of 15-HETrE, therefore HFIPA was not used in any further studies of 15-HETrE.

[
  {
    "molecule": "CCCCCC(O)/C=C/C=C\\C/C=C\\CCCCCCC(=O)O (stereo not shown)",
    "solubility": "1260 to 3780 µg/mL"
  }
]

---

Test: Solubility screen of as-received 15-HETrE (aliquot addition method)
Type: physicochemical
Conditions: organic solvent or mixture; Acetonitrile (ACN); estimated; read-out: Solubility Range
value-type: solubility

[
  {
    "compound": "CCCCCC(O)/C=C/C=C\\C/C=C\\CCCCCCC(=O)O (stereo not shown)",
    "result": "930 to 2780 µg/mL"
  }
]

---

Experiment: Solubility screen of as-received 15-HETrE (aliquot addition method)
Type: physicochemical
Details: organic solvent or mixture; Methanol (MeOH); estimated; read-out: Solubility Range

[
  {
    "compound": "CCCCCC(O)/C=C/C=C\\C/C=C\\CCCCCCC(=O)O (stereo not shown) [15-HETrE]",
    "solubility": "2120 to 6360 µg/mL"
  }
]
